Provenance of the data: patent US4748175A

- protocol text: Acute toxicity (LD50) in rats
- measurement conditions: rat, in vivo, iv, Male
Counter-ions that a name gives are not always drawn.
outcome measure: LD50 (mg/kg)
Record the value in mg/kg, omitting the unit from your answer.

Data request: Which LD50 value is on record for Cc1nc(NCCN2CCOCC2)c2c(n1)NC(=O)CO2 [Example 22, dihydrochloride] ?
Data returned: 253

###

- protocol text: Acute toxicity (LD50) in rats
- measurement conditions: rat, in vivo, po, Female
Structures can show the parent of a compound that is named as a salt.
outcome measure: LD50 (mg/kg)
Answer format: numeric, mg/kg implied, no suffix.

Data request: Fill blank: measured LD50 of the compound Cc1nc(NCCN2CCOCC2)c2c(n1)NC(=O)CO2 [Example 22, dihydrochloride] is ____.
Data returned: 810

###

- protocol text: Acute toxicity (LD50) in mice
- measurement conditions: mouse, in vivo, po, Male
Counter-ions that a name gives are not always drawn.
outcome measure: LD50 (mg/kg)
The reply should be a number in mg/kg, with the unit left off.

Data request: Reported LD50 for Cc1nc(NCCN2CCOCC2)c2c(n1)NC(=O)CO2 [Example 22, dihydrochloride] : what is it?
Data returned: 1360

###

- protocol text: Acute toxicity (LD50) in mice
- measurement conditions: mouse, in vivo, ip, Female
Where a name gives a salt, the structure may show the parent alone.
outcome measure: LD50 (mg/kg)
Supply the numeric figure in mg/kg, leaving out any unit text.

Data request: Can you look up the measured LD50 of Cc1nc(NCCN2CCOCC2)c2c(n1)NC(=O)CO2 [Example 22, dihydrochloride] for me?
Data returned: 573
